systemName: Ketol-acid reductoisomerase (NADP(+)) (Escherichia coli (strain K12), UniProt P05793)
Sequence (P05793 whole entry): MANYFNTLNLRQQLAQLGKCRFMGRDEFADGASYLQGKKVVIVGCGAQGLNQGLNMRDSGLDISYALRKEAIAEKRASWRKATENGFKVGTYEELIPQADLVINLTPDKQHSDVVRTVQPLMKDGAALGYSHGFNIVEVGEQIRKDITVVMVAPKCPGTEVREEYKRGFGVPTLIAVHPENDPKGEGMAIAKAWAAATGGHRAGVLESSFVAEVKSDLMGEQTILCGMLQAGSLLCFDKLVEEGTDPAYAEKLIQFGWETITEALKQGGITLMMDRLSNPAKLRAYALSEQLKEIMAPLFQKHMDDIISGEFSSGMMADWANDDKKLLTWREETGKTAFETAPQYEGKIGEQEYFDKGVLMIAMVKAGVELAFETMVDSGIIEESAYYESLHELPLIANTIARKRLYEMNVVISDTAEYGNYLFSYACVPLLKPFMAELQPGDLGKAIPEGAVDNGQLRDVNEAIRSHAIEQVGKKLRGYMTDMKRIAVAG
assayRemarks: Inhibition of Escherichia coli KARI
measurementLabel: Ki (µM)
Provide only the numeric value, understood in µM.

Inquiry: Please list Ki recorded for the molecule N=C(N)c1ccc(OCCCCCOc2ccc(C(=N)N)cc2)cc1 [PENTAMIDINE ISETHIONATE]
Reply text: 382
